Can you tell me interaction score for the items I'm about to list?
Target: T1, 4H3427-bH
T1 chain: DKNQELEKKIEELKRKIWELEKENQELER
Experiment: two-hybrid library CCNG1;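 further: natural log of median RNA to DNA barcode read ratio; higher means stronger binding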
One number for each entry.

Each binder below has a recorded value; state its interaction score.
1. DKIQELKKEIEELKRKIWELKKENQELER [4H2667-bH]
2. DKIQELKKKNEELKREIWELEKEIQELKR [4H3010-bH]
3. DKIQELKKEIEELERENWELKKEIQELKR [4H2586-bH]
4. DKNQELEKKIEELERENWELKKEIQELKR [4H3354-bH]
5. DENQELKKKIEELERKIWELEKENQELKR [4H1828-bH]
6. DKIQELKKEIEELKRKNWELEKEIQELER [4H2673-bH]
7. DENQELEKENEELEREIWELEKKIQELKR [4H1158-bH]

1. 1.38
2. 0.496
3. 0.762
4. 0.568
5. 0.362
6. -0.449
7. 0.596
